Hey, just so you know, these numbers are from patent US10995099B2.

- Test system: HepG2
- Test Summary: EC50 in HepG2
- Type: cell-based
- Reported Conditions: HepG2; read-out: EC50 (μM) HepG2
Reported Property: EC50

Some entries whose results are on file:
Compound	Value Measured
COc1ccccc1[C@H](Cn1c(=O)n(C2CCC2C(=O)O)c(=O)c2c(C)c(-c3ncco3)sc21)OC1CCOCC1 (stereo partly shown)	< 0.01 µM
COc1ccccc1[C@H](Cn1c(=O)n(C(C)(C)C(N)=O)c(=O)c2c(C)c(-c3ncco3)sc21)OC1CCOCC1	< 0.01 µM
COc1ccccc1C(Cn1c(=O)n(C(C)(C)C(=O)O)c(=O)c2c(C)c(Br)sc21)OC1CCOCC1 (stereo not shown)	0.1 to 1 µM

Sure, the documented EC50 for COc1ccccc1C(Cn1c(=O)n(C2(C(N)=O)CCCC2)c(=O)c2c(C)c(-c3ncco3)sc21)OC1CCOCC1 (stereo not shown) is < 0.01 µM

Sure, the documented EC50 for "COc1ccccc1[C@H](Cn1c(=O)n(C2(C(=O)NS(C)(=O)=O)CC2)c(=O)c2c(C)c(-c3ncco3)sc21)OC1CCOCC1" is > 1 µM

Sure, the documented EC50 for "COc1ccccc1[C@H](Cn1c(=O)n(C2(C(=O)O)CCCC2)c(=O)c2c(C)c(-n3nccn3)sc21)OC1CCOCC1" is < 0.01 µM

Sure, the documented EC50 for COc1ccccc1C(Cn1c(=O)n(C2(C(N)=O)CCCC2)c(=O)c2c(C)c(Br)sc21)OC1CCOCC1 (stereo not shown) is 0.1 to 1 µM

Sure, the documented EC50 for CNC(=O)C1(n2c(=O)c3c(C)c(-c4ncco4)sc3n(CC(OC3CCOCC3)c3ccccc3OC)c2=O)CC1 (stereo not shown) is 0.01 to 0.1 µM

Sure, the documented EC50 for "COc1ccccc1[C@H](Cn1c(=O)n(C2(C(=O)O)CC2)c(=O)c2c(C)c(-c3cnco3)sc21)OC1CCOCC1" is > 1 µM

Sure, the documented EC50 for "COc1ccccc1[C@H](Cn1c(=O)n(C2(C(=O)O)CC2)c(=O)c2c(C)c(-n3cccn3)sc21)OC1CCOCC1" is 0.1 to 1 µM

====

Entries annotated with measured EC50
- System: HepG2
- Test Summary: EC50 in HepG2
- Type: cell-based
- Reported Conditions: HepG2; read-out: EC50 (μM) HepG2

Compound	EC50
CNC(=O)C1(n2c(=O)c3c(C)c(Br)sc3n(CC(OC3CCOCC3)c3ccccc3OC)c2=O)CCC1 (stereo not shown) [Example 52]	0.01 to 0.1 µM
COc1ccccc1[C@H](Cn1c(=O)n(C2(C(=O)O)CC2)c(=O)c2c(C)c(-n3nccn3)sc21)OC1CCOCC1 [Example 49]	0.1 to 1 µM

Sure, the documented EC50 for COc1ccccc1C(Cn1c(=O)n(C2(C(N)=O)CC2)c(=O)c2c(C)c(-c3ncco3)sc21)OC1CCOCC1 (stereo not shown) [Example 46] is 0.01 to 0.1 µM

Sure, the documented EC50 for COc1ccccc1C(Cn1c(=O)n(C2(C(=O)O)CCC2)c(=O)c2c(C)c(-c3ncco3)sc21)OC1CCOCC1 (stereo not shown) [Example 37] is 0.01 to 0.1 µM

====

- Assayed System: ACC2 (Homo sapiens (Human))
- Test Summary: In vitro ACC inhibition assay (ADP-Glo), ACC2
- Assay type: biochemical
- Reported Conditions: 5 nM ACC2, 20 μM ATP, 20 μM acetyl-CoA; read-out: IC50 (μM) ACC2
Reported Property: IC50

Compound	Assayed System	IC50
COc1ccccc1[C@H](Cn1c(=O)n(C2(C(=O)O)CCCC2)c(=O)c2c(C)c(-n3nccn3)sc21)OC1CCOCC1	ACC2 (Homo sapiens (Human))	< 0.01 µM
COc1ccccc1C(Cn1c(=O)n(C2(CC(=O)O)CC2)c(=O)c2c(C)c(-c3ncco3)sc21)OC1CCOCC1 (stereo not shown)	ACC2 (Homo sapiens (Human))	0.01 to 0.1 µM
COc1ccccc1C(Cn1c(=O)n(C2(C(=O)O)CC2)c(=O)c2c(C)c(Br)sc21)OC1CCOCC1 (stereo not shown)	ACC2 (Homo sapiens (Human))	0.01 to 0.1 µM
CNC(=O)C1(n2c(=O)c3c(C)c(-c4ncco4)sc3n(CC(OC3CCOCC3)c3ccccc3OC)c2=O)CCCC1 (stereo not shown)	ACC2 (Homo sapiens (Human))	0.01 to 0.1 µM
COc1ccccc1[C@H](Cn1c(=O)n(C2(C(=O)O)CC2)c(=O)c2c(C)c(-c3ncco3)sc21)OC1CCOCC1	ACC2 (Homo sapiens (Human))	< 0.01 µM

Sure, the documented IC50 for "COc1ccccc1[C@H](Cn1c(=O)n(C2(C(=O)O)CCC2)c(=O)c2c(C)c(Br)sc21)OC1CCOCC1" is < 0.01 µM

Sure, the documented IC50 for "COc1ccccc1[C@@H](Cn1c(=O)n(C2(C(=O)O)CC2)c(=O)c2c(C)c(Br)sc21)OC1CCOCC1" is 0.1 to 1 µM

====

Entries annotated with measured IC50
- Assayed System: ACC2 (Homo sapiens (Human), UniProt O00763)
- Sequence (O00763 whole entry, species assumed): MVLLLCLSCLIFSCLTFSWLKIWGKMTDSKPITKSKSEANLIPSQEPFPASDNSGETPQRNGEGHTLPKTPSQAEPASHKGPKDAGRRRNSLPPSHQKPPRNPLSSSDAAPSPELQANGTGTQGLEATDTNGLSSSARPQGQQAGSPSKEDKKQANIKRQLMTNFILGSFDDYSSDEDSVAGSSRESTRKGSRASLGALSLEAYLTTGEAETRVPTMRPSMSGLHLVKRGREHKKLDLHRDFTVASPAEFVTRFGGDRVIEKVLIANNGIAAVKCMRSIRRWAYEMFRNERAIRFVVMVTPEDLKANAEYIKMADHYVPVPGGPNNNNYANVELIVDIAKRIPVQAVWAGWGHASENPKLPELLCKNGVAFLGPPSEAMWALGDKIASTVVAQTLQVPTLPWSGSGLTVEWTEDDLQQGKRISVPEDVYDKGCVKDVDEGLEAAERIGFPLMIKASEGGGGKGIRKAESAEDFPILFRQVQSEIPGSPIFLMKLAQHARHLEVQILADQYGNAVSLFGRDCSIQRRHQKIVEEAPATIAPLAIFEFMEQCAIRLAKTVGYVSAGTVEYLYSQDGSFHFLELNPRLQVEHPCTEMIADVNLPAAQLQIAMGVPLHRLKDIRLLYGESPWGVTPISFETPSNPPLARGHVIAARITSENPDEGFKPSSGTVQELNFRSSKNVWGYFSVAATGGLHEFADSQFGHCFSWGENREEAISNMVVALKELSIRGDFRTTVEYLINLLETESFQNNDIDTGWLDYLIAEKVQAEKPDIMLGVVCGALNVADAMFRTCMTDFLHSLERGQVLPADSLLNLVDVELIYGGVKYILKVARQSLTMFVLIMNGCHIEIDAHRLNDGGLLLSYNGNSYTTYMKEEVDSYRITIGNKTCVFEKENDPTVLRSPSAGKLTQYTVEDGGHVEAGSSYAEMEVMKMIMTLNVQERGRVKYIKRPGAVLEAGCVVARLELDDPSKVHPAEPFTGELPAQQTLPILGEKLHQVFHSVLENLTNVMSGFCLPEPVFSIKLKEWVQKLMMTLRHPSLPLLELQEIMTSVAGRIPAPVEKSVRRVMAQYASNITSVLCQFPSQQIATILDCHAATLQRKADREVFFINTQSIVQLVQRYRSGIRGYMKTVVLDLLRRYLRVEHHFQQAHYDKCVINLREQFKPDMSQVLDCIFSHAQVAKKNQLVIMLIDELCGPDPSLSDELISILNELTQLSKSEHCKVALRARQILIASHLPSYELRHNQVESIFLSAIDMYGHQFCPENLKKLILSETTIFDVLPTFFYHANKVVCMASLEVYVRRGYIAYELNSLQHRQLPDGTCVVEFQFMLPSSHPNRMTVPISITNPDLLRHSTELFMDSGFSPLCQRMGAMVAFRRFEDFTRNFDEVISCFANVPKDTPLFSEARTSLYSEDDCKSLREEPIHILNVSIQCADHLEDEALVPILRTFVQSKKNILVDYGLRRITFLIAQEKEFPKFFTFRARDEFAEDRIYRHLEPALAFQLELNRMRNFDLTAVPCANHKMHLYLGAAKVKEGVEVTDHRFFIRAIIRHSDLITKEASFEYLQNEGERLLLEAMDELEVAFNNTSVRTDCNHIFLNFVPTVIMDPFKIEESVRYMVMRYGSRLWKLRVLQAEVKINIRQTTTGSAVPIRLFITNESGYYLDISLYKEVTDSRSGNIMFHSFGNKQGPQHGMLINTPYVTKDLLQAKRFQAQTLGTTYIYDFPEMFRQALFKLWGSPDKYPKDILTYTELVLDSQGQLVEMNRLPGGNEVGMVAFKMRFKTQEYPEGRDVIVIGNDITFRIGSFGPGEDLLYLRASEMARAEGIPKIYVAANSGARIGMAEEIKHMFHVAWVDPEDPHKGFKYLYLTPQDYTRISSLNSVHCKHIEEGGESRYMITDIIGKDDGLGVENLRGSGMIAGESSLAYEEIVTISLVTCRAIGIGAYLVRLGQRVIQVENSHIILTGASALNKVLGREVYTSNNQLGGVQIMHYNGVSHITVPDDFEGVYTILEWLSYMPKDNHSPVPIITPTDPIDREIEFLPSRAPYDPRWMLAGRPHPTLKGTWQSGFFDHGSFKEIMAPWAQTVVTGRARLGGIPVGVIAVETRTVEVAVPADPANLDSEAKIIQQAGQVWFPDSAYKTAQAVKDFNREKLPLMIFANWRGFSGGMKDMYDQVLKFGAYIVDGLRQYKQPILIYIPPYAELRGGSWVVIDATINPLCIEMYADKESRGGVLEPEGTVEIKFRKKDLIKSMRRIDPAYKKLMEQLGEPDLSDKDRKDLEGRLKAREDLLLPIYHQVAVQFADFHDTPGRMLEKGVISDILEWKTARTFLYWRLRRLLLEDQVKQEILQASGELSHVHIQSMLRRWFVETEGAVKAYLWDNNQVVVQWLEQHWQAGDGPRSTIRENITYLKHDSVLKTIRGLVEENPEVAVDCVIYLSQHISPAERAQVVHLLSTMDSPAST
- Test Summary: In vitro ACC inhibition assay (ADP-Glo), ACC2
- Type: biochemical
- Reported Conditions: ND630 versus RJ compounds; isoform not given; read-out: IC50 (μM) ND630/RJ-cmps(%)

Some entries whose results are on file:
Molecule	IC50
COc1ccccc1C(Cn1c(=O)n(C2(C(=O)O)CCCC2)c(=O)c2c(C)c(-c3ncco3)sc21)OC1CCOCC1 (stereo not shown) [Example 25]	0.003 to 0.005 µM
COc1ccccc1C(Cn1c(=O)n(C2(C(N)=O)CC2)c(=O)c2c(C)c(-c3ncco3)sc21)OC1CCOCC1 (stereo not shown) [Example 46]	0.005 to 0.01 µM
COc1ccccc1[C@H](Cn1c(=O)n(C2(C(=O)NS(C)(=O)=O)CC2)c(=O)c2c(C)c(-c3ncco3)sc21)OC1CCOCC1 [Example 41]	0.005 to 0.01 µM
COc1ccccc1[C@@H](Cn1c(=O)n(C2(C(=O)O)CC2)c(=O)c2c(C)c(-c3ncco3)sc21)OC1CCOCC1 [Example 28]	0.003 to 0.005 µM
COc1ccccc1[C@@H](Cn1c(=O)n(C2(C(=O)O)CC2)c(=O)c2c(C)c(Br)sc21)OC1CCOCC1 [Example 32]	0.003 to 0.005 µM
COc1ccccc1[C@H](Cn1c(=O)n(C2(C(=O)O)CC2)c(=O)c2c(C)c(-c3ncco3)sc21)OC1CCOCC1 [Example 33]	0.003 to 0.005 µM

With those in mind, consider the next molecule.
Sure, the documented IC50 for COc1ccccc1C(Cn1c(=O)n(C(C)(C)C(=O)O)c(=O)c2cc(C)c(-c3ncco3)cc21)OC1CCOCC1 (stereo not shown) [Example 11] is 0.005 to 0.01 µM

====

- Assayed System: ACC2 (Homo sapiens (Human), UniProt O00763)
- Test Summary: In vitro ACC inhibition assay (ADP-Glo), ACC2
- Format: biochemical
- Reported Conditions: 5 nM ACC2, 20 μM ATP, 20 μM acetyl-CoA; read-out: IC50 (μM) ACC2
Reported Property: IC50

Some entries whose results are on file:
Compound	IC50
COc1ccccc1[C@H](Cn1c(=O)n(C2(C(=O)O)CC2)c(=O)c2c(C)c(-c3cnco3)sc21)OC1CCOCC1 [Example 80]	0.01 to 0.1 µM
COc1ccccc1C(Cn1c(=O)n(C2(C(N)=O)CCCC2)c(=O)c2c(C)c(Br)sc21)OC1CCOCC1 (stereo not drawn) [Example 48]	< 0.01 µM
COc1ccccc1[C@H](Cn1c(=O)n(C2(C(=O)O)CCC2)c(=O)c2c(C)c(CN)sc21)OC1CCOCC1 [Example 34]	> 1 µM
COc1ccccc1[C@H](Cn1c(=O)n(C2(C(=O)O)CC2)c(=O)c2c(C)c(Br)sc21)OC1CCOCC1 [Example 29]	< 0.01 µM
COc1ccccc1[C@H](Cn1c(=O)n(C2(C(=O)O)CC2)c(=O)c2c(C)c(-n3nccn3)sc21)OC1CCOCC1 [Example 49]	< 0.01 µM

Sure, the documented IC50 for COc1ccccc1[C@H](Cn1c(=O)n(C2(C(=O)O)CC2)c(=O)c2cc(-c3ncco3)ccc21)OC1CCOCC1 [Example 39] is > 1 µM
